target: Serotonin 1a (5-HT1a) receptor/Adrenergic receptor alpha-1 (Rattus norvegicus) (UniProt P15823+P23944+P43140+P19327); assay: Selectivity for 5-HT1A receptor of rat hippocampus and alpha-1 adrenergic receptor of rat cortex.; type: tissue-based
metric.name: Selectivity

Completed entries (count: 5):
INSERT INTO results (molecule, metric_name, experimental_result) VALUES
  ('COc1ccc(CCCCNCCOc2cc(F)cc3c2OC(C)(C)CC3)cc1', 'Selectivity', 8.2),
  ('COc1ccc(CCNCCOc2cc(F)cc3c2OC(C)CC3)cc1 (centres undefined)', 'Selectivity', 15),
  ('COc1ccc(CCCCNCCOc2cc(F)cc3c2OC(C)CC3)cc1 (centres undefined)', 'Selectivity', 15),
  ('O=C1CCOc2c(OCCNCCCCc3ccc(O)cc3)cc(F)cc21', 'Selectivity', 2.2),
  ('CSc1ccc(CCCCNCCOc2cc(F)cc3c2OCCC3=O)cc1', 'Selectivity', 17);

a = CN(C)c1ccc(CCCCNCCOc2cc(F)cc3c2OCCC3=O)cc1
b = COc1ccc(CCCCNCCOc2cc(F)cc3c2OCC/C3=N/O)cc1
Of the pair a and b , name the member with the lesser recorded Selectivity. Reply briefly: the label of your chosen item.
b
(b: 7.5, a: 20)

---

assay: Binding affinity (Ki) ratio of D2 receptor of rat striatum and 5-HT1A receptor of rat hippocampus.; type: tissue-based
metric.name: Ratio

Completed entries (count: 3):
INSERT INTO measurements (compound, experimental_result) VALUES
  ('CSc1ccc(CCCCNCCOc2cc(F)cc3c2OCCC3=O)cc1', 2.1),
  ('O=C1CCOc2c(OCCNCCCCc3ccc4c(c3)OCO4)cc(F)cc21', 16),
  ('COc1ccc(CCCCNCCOc2cc(F)cc3c2OCCC3O)cc1 (stereo in doubt; (-)-34)', 13);

A = COc1ccc(CCCCCCNCCOc2cc(F)cc3c2OC(C)CC3)cc1 (stereo not given)
B = O=C1CCOc2c(OCCNCCCCc3ccc4c(c3)CCO4)cc(F)cc21
C = O=C1CCOc2c(OCCNCCCCc3ccccc3)cc(F)cc21
D = CCOc1ccc(CCCCNCCOc2cc(F)cc3c2OCCC3=O)cc1
List the 4 entries from lowest Ratio to highest Ratio value. Write the labels in rank order as requested.
A, C, D, B

---

5-hydroxytryptamine receptor 1A (Rattus norvegicus, UniProt P19327) measurements of Ki, listed per entry.
Sequence (P19327 whole entry): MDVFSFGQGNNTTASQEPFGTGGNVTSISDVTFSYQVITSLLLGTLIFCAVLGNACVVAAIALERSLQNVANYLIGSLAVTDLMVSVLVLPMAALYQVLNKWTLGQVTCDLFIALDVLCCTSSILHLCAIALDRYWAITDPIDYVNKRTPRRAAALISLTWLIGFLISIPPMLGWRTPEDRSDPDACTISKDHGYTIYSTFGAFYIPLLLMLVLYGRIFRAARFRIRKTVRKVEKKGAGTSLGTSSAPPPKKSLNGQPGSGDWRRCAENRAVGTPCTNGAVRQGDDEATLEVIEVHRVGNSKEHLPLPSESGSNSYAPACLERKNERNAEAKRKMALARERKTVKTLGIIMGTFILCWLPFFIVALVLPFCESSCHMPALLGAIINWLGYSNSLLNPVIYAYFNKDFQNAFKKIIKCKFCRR
metric.name: Ki (nM)

Completed entries (count: 4):
INSERT INTO measurements (compound, metric_name, unit_name, experimental_result) VALUES
  ('COc1ccc(CCCCNCCOc2cc(F)cc3c2OCCC3=O)cc1', 'Ki', 'nM', 3.07),
  ('COc1ccc(CCCNCCOc2cc(F)cc3c2OC(C)CC3)cc1 (stereo unspecified)', 'Ki', 'nM', 9.53),
  ('COc1ccc(CCCCNCCOc2cc(F)cc3c2OCCC3=O)c(C)c1C', 'Ki', 'nM', 77),
  ('COc1ccc(CCCCCCNCCOc2cc(F)cc3c2OC(C)CC3)cc1 (stereo unspecified)', 'Ki', 'nM', 8.99);

I = COc1ccc(CCNCCOc2cc(F)cc3c2OCCC3O)cc1 (stereo unspecified)
II = COc1ccc(CCNCCOc2cc(F)cc3c2OCCC3=O)cc1
Between these two entries, I and II , state which has the higher Ki. Reply briefly: the label of your chosen item.
II

---

biological target: UniProt P08908; experiment: Antagonist activity against CHO cells expressing the human 5-hydroxytryptamine 1A receptor in a forskolin stimulated adenylate cyclase (FSC) assay.; format: functional, cell-based
Sequence (P08908 whole entry): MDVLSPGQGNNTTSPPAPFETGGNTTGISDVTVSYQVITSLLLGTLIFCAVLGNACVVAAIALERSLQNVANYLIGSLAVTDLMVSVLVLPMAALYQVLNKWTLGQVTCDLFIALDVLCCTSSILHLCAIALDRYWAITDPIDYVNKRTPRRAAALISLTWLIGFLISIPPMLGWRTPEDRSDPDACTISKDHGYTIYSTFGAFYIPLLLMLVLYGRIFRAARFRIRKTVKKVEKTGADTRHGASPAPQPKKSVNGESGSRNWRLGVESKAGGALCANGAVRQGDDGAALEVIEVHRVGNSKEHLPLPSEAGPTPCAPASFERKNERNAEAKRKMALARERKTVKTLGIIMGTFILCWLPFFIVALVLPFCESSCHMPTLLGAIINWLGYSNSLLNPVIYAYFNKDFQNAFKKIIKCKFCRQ
metric.name: FSC recovery (%)

Completed entries (count: 6):
INSERT INTO measurements (molecule, experimental_result) VALUES
  ('COc1ccc(CCCCNCCOc2cc(F)cc3c2OC(C)CC3)cc1 (configuration not stated)', 53),
  ('COc1ccc(CCCCNCCOc2cc(F)cc3c2OCCC3O)cc1 (stereo in doubt; 34)', 108),
  ('COc1ccc(CCCCCCNCCOc2cc(F)cc3c2OC(C)CC3)cc1 (configuration not stated)', 76),
  ('COc1ccc(CCCCNCCOc2cc(F)cc3c2OCC=C3)cc1', 109),
  ('COc1ccc(CCNCCOc2cc(F)cc3c2OCCC3O)cc1 (configuration not stated)', 68),
  ('COc1ccc(CCCCNCCOc2cc(F)cc3c2OCCC3O)cc1 (single isomer, unassigned; (+))', 109);

A = CCOc1ccc(CCCCNCCOc2cc(F)cc3c2OCCC3=O)cc1
B = COc1ccc(CCCCNCCOc2cc(F)cc3c2OCCC3=O)c2ccccc12
Between these two entries, A and B , state which has the higher FSC recovery. Reply briefly: the label of your chosen item.
A

---

assay: Binding affinity (Ki) ratio of D2 receptor of rat striatum and 5-HT1A receptor of rat hippocampus.; type: tissue-based
metric.name: Ratio

P = COc1ccc(CCCCNCCOc2cc(F)cc3c2OCC=C3)cc1
Q = COc1cccc(CCCCNCCOc2cc(F)cc3c2OCCC3=O)c1
R = COc1ccc(CCCCNCCOc2cc(F)cc3c2OCCC3)cc1
Order field: Ratio | Direction: descending (largest first) Write the labels in rank order as requested.
Q, P, R

a = O=C1CCOc2c(OCCNCCCCc3ccc(Cl)cc3)cc(F)cc21
b = COc1ccc(CCCCNCCOc2cc(F)cc3c2OCCC3=O)cc1
Of the pair a and b , name the member with the lesser recorded Ratio. Reply briefly: the label of your chosen item.
a
(a: 1.7, b: 20)

a = COc1ccc(CCNCCOc2cc(F)cc3c2OCCC3=O)cc1
b = COc1ccc(CCCNCCOc2cc(F)cc3c2OC(C)CC3)cc1 (centres undefined)
Between these two entries, a and b , state which has the higher Ratio. Reply briefly: the label of your chosen item.
a

1 = O=C1CCOc2c(OCCNCCCCc3ccc4c(c3)OCCO4)cc(F)cc21
2 = COc1ccc(CCCCCNCCOc2cc(F)cc3c2OC(C)CC3)cc1 (centres undefined)
Of the pair 1 and 2 , name the member with the lesser recorded Ratio. Reply briefly: the label of your chosen item.
2
(2: 0.41, 1: 9.7)

---

Target: Adrenergic receptor alpha-1 (Rattus norvegicus, UniProt P15823+P23944+P43140)
Sequence (P15823 whole entry): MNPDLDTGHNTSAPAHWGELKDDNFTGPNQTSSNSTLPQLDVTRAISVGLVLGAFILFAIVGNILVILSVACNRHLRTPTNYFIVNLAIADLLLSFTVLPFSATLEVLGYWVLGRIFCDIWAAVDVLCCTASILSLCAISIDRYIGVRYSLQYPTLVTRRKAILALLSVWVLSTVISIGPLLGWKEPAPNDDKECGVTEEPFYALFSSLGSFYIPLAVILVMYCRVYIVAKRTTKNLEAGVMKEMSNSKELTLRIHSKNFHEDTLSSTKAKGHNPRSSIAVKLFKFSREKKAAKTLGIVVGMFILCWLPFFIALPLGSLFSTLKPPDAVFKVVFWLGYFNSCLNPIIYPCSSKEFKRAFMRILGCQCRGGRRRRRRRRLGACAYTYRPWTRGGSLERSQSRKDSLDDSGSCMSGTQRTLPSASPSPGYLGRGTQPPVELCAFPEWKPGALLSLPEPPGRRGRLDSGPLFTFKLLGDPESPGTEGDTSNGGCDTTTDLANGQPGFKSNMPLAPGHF
Sequence (P23944 whole entry): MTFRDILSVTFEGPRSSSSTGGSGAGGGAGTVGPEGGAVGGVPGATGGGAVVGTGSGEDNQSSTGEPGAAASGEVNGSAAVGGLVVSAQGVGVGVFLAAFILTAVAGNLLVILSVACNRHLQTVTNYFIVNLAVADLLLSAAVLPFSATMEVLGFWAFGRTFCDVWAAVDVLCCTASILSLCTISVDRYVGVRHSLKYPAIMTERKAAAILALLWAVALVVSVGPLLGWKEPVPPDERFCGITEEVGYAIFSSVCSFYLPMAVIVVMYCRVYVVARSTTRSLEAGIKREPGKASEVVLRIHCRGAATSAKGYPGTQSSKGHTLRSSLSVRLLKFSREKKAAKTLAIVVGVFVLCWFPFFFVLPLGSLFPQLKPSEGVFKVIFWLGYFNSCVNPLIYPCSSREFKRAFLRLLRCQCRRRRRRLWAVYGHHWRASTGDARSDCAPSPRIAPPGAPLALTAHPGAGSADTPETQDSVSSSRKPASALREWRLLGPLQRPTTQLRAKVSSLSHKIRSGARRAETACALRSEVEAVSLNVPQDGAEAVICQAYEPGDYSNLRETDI
Sequence (P43140 whole entry): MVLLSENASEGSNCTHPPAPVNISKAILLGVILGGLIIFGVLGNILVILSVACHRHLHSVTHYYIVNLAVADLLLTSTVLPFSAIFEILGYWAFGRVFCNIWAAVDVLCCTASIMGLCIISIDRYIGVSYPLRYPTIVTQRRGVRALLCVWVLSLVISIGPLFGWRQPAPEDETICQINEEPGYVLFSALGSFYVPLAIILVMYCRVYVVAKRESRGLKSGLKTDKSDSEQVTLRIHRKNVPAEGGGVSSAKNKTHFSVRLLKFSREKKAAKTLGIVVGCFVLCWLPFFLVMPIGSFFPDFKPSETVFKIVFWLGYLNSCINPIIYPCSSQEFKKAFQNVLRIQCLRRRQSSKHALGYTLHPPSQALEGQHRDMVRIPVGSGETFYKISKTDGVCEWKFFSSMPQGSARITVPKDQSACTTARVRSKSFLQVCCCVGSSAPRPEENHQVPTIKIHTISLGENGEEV
Assay: Binding affinity against alpha-1 adrenergic receptor on rat cortex using [3H]-prazosin as radioligand.
Assay type: tissue-based, Brain
metric.name: Ki (nM)

INSERT INTO results (compound, experimental_result) VALUES
  ('COc1ccc(CCCCNCCOc2cc(F)cc3c2OCCC3O)cc1 (single isomer, unassigned; (+))', 73.3);

A = COc1ccccc1CCCCNCCOc1cc(F)cc2c1OCCC2=O
B = CN(C)c1ccc(CCCCNCCOc2cc(F)cc3c2OCCC3=O)cc1
C = COc1ccc(CCCCCNCCOc2cc(F)cc3c2OC(C)CC3)cc1 (stereo unspecified)
D = COc1ccc(CCNCCOc2cc(F)cc3c2OC(C)CC3)cc1 (stereo unspecified)
E = O=C1CCOc2c(OCCNCCCCc3ccc([N+](=O)[O-])cc3)cc(F)cc21
// ranking: key=Ki, reverse=True Write the labels in rank order as requested.
B, E, A, C, D
(B: 574 nM, E: 258 nM, A: 75.6 nM, C: 19.1 nM, D: 2.73 nM)

I = O=C1CCOc2c(OCCNCCCCc3ccc(Cl)cc3)cc(F)cc21
II = CSc1ccc(CCCCNCCOc2cc(F)cc3c2OCCC3=O)cc1
III = COc1ccc(CCCCNCCOc2cc(F)cc3c2OCCC3=O)c(C)c1C
IV = COc1ccc(CCCCNCCOc2cc(F)cc3c2OCCC3O)cc1 (stereo in doubt; 34)
// ranking: key=Ki, reverse=True Write the labels in rank order as requested.
II, III, I, IV
